- assay_system: RBM7 (UniProt Q9Y580)
- Sequence: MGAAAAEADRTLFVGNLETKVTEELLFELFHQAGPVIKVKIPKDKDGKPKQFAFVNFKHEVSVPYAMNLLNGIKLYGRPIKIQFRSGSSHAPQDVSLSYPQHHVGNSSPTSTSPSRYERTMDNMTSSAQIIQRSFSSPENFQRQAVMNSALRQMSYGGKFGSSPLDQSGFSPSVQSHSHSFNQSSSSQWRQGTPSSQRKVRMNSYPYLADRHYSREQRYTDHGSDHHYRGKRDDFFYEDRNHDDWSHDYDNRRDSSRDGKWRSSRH
- assay_comment: EC50 of free RNA motif oligo competing protein binding to immobilised probe
quantity_name: pEC50
// pEC50: -log10(molar conc.)

Quick check: pEC50 of UAUUUAU ?
6.51

Quick check: pEC50 of AAUAAA ?
5.71

====

- assay_system: MRPS31 (UniProt Q92665)
- assay_comment: Kd (EC50 corrected by depletion factor)
quantity_name: Kd (µM)
Use µM as the unit, but write only the number.

Quick check: Kd of UAUUUAU ?
0.0524

====

- assay_system: HNRNPA2B1 (UniProt P22626)
- Sequence (P22626 whole entry): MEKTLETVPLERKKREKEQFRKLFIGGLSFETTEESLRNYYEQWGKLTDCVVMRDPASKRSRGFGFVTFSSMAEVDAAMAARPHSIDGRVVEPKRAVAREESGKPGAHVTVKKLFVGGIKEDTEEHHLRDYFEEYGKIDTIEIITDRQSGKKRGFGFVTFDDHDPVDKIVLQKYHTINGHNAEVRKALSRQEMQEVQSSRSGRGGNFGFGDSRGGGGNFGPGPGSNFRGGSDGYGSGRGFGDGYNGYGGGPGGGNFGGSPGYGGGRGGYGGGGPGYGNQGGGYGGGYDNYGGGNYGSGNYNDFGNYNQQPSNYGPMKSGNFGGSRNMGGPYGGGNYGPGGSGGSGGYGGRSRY
- assay_comment: Kd (EC50 corrected by depletion factor)
quantity_name: Kd
Write the numeric value and append its unit.

Checklist item: Kd tested on HNRNPA2B1 (UniProt P22626), entry UAUUUAU , value?
4.9 µM

====

- assay_system: PCBP2 (UniProt Q15366)
- Sequence (Q15366 whole entry): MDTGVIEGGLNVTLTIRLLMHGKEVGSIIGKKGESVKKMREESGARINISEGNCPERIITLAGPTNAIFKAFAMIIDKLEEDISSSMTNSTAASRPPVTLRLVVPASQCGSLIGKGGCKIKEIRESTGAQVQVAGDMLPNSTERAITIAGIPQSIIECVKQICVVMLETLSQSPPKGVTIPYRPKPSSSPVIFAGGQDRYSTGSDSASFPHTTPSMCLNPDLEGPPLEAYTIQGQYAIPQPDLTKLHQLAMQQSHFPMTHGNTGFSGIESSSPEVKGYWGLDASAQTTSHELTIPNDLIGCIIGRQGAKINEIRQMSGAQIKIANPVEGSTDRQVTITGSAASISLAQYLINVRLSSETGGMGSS
- assay_comment: Kd (EC50 corrected by depletion factor)
quantity_name: pKd
// pKd: -log10(molar conc.)

Quick check: pKd of CUGUCCU ?
5.91

====

- assay_system: TOE1 (UniProt Q96GM8)
- assay_comment: Kd (EC50 corrected by depletion factor)
quantity_name: Kd (nM)
Use nM as the unit, but write only the number.

Quick check: Kd of UAUUUAU ?
1020

====

- assay_system: MRPL13 (UniProt Q9BYD1)
- assay_comment: Kd (EC50 corrected by depletion factor)
quantity_name: Kd (nM)
Use nM as the unit, but write only the number.

Quick check: Kd of CUGUCCU ?
78.4

====

- assay_system: ERI3 (UniProt O43414)
- Sequence: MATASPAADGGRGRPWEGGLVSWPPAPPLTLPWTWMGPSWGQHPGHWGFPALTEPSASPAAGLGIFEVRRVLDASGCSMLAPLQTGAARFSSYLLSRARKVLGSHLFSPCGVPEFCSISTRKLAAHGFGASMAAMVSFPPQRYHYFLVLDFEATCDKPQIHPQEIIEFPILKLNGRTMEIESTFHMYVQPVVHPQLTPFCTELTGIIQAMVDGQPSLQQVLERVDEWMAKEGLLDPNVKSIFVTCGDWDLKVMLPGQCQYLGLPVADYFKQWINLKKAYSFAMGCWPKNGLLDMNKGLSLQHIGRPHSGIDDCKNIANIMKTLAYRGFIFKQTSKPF
- assay_comment: Kd (EC50 corrected by depletion factor)
quantity_name: Kd
Write the numeric value and append its unit.

Quick check: Kd of AAUAAA ?
173 nM

====

- assay_system: PPIE (UniProt Q9UNP9)
- Sequence (Q9UNP9 whole entry): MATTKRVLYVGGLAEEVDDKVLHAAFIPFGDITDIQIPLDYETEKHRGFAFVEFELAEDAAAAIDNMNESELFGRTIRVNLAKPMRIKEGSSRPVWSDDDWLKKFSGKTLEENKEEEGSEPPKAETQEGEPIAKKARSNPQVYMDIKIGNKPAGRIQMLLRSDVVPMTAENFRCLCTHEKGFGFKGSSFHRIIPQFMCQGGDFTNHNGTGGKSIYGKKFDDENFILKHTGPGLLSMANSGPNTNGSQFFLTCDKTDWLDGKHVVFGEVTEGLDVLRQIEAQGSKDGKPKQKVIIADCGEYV
- assay_comment: EC50 of free RNA motif oligo competing protein binding to immobilised probe
quantity_name: pEC50
// pEC50: -log10(molar conc.)

Quick check: pEC50 of UAUUUAU ?
6.52

====

- assay_system: GNB2L1 (UniProt P63244)
- assay_comment: EC50 of free RNA motif oligo competing protein binding to immobilised probe
quantity_name: pEC50
// pEC50: -log10(molar conc.)

Quick check: pEC50 of CUGUCCU ?
5.53

====

- assay_system: NONO (UniProt Q15233)
- Sequence: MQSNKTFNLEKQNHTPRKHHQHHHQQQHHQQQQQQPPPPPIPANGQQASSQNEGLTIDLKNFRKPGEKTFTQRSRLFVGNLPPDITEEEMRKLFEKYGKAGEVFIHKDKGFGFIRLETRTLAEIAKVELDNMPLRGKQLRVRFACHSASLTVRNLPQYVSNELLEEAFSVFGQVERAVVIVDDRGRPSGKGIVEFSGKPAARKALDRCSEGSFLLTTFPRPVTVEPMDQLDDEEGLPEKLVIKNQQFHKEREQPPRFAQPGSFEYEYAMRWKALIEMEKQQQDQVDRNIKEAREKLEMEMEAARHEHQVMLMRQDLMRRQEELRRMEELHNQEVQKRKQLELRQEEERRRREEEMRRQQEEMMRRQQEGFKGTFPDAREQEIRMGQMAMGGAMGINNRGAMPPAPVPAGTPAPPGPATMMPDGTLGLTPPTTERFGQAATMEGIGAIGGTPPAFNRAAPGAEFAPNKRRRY
- assay_comment: Kd (EC50 corrected by depletion factor)
quantity_name: Kd (nM)
Use nM as the unit, but write only the number.

Quick check: Kd of AAUAAA ?
0.305

====

- assay_system: RPS17 (UniProt P08708)
- assay_comment: Kd (EC50 corrected by depletion factor)
quantity_name: pKd
// pKd: -log10(molar conc.)

Quick check: pKd of AAUAAA ?
6.90

====

Kindly supply the reported pKd values for the records listed here.
- assay_system: DHX9 (UniProt Q08211)
- Sequence (Q08211 whole entry): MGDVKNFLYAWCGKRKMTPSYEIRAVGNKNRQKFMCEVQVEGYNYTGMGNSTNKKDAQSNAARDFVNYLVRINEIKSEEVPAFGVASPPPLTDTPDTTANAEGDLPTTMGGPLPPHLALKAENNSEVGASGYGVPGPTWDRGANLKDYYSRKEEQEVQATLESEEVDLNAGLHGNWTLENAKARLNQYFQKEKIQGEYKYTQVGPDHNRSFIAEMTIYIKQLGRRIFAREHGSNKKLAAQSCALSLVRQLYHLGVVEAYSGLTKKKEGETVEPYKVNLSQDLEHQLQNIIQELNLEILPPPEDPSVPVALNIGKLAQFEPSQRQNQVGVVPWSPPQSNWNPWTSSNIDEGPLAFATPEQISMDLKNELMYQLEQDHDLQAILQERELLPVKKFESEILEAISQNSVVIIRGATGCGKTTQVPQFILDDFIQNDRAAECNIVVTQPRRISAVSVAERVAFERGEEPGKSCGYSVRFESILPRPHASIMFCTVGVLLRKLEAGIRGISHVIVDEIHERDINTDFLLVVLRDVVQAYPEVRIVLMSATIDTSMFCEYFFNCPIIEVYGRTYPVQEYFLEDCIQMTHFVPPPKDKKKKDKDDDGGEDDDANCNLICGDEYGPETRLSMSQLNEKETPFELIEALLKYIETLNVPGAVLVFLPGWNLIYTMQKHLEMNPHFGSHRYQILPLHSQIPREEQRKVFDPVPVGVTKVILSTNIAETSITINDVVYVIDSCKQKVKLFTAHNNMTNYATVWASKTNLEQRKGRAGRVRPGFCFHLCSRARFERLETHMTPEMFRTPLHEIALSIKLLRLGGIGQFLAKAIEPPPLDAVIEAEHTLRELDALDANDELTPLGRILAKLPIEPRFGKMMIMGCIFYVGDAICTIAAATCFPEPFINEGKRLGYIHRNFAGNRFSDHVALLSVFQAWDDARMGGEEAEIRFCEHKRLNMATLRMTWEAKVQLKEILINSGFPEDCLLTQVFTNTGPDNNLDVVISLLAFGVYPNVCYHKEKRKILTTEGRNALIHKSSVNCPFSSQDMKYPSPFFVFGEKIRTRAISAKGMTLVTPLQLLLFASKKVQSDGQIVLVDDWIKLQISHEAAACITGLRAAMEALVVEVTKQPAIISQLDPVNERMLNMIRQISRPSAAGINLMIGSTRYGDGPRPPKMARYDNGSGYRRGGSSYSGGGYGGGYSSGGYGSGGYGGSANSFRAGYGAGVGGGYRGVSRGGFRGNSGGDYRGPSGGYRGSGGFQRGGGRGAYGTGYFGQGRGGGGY
- assay_comment: Kd (EC50 corrected by depletion factor)
// pKd: -log10(molar conc.)

Checklist item: pKd tested on DHX9 (UniProt Q08211), entry AAUAAA , value?
5.74

Checklist item: pKd tested on DHX9 (UniProt Q08211), entry CUGUCCU , value?
6.81

Checklist item: pKd tested on DHX9 (UniProt Q08211), entry UAUUUAU , value?
5.91

====

- assay_system: NCL (UniProt P19338)
- Sequence (P19338 whole entry): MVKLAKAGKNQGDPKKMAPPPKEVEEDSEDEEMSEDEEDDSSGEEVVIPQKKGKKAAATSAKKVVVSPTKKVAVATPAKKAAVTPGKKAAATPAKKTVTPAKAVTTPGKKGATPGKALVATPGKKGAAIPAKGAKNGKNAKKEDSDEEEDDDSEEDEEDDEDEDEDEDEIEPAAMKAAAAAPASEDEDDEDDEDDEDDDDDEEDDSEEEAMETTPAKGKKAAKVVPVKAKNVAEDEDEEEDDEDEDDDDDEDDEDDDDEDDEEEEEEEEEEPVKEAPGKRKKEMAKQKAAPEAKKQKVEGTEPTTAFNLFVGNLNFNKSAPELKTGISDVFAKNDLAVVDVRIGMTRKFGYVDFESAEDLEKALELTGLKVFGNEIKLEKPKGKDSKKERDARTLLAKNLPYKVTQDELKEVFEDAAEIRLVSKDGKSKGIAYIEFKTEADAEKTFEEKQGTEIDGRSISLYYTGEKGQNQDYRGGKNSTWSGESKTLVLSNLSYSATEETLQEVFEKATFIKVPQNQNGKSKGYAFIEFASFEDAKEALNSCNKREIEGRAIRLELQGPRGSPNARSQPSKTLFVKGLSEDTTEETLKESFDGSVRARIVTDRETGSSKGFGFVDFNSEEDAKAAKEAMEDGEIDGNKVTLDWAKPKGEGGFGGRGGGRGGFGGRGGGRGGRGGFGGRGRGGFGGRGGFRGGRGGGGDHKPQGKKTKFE
- assay_comment: EC50 of free RNA motif oligo competing protein binding to immobilised probe
quantity_name: pEC50
// pEC50: -log10(molar conc.)

Quick check: pEC50 of UAUUUAU ?
5.66

Quick check: pEC50 of CUGUCCU ?
6.49

====

- assay_system: MEX3B (UniProt Q6ZN04)
- Sequence: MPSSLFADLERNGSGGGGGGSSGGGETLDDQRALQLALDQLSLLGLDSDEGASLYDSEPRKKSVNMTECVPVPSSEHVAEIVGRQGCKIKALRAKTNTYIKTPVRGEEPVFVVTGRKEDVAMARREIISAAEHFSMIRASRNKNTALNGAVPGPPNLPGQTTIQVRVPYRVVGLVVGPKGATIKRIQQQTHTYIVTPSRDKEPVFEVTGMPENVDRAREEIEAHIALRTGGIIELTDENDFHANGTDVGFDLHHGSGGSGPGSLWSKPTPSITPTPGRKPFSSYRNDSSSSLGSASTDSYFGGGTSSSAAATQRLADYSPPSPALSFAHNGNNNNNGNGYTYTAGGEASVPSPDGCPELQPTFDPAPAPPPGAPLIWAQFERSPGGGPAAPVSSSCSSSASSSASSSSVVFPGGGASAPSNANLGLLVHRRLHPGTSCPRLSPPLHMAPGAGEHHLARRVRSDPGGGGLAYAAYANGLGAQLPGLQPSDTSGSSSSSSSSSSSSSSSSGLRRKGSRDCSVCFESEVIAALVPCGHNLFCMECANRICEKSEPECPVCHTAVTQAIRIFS
- assay_comment: EC50 of free RNA motif oligo competing protein binding to immobilised probe
quantity_name: EC50 (µM)
Use µM as the unit, but write only the number.

Quick check: EC50 of UAUUUAU ?
0.728

Quick check: EC50 of AAUAAA ?
1.64

====

Kindly supply the reported pKd values for the records listed here.
- assay_system: CELF2 (UniProt O95319)
- Sequence: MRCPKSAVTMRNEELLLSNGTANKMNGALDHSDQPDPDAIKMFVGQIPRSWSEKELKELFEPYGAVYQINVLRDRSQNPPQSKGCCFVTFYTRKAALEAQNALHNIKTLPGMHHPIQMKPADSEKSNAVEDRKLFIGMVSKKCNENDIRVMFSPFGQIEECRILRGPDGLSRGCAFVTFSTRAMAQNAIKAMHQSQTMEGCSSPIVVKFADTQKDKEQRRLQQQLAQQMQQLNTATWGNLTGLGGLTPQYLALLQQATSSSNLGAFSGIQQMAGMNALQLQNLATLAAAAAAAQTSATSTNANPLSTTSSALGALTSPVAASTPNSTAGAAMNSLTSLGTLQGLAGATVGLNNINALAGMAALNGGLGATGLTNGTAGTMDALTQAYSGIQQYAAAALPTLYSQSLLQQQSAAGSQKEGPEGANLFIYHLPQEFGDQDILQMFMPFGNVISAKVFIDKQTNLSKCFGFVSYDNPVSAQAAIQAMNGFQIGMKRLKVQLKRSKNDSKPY
- assay_comment: Kd (EC50 corrected by depletion factor)
// pKd: -log10(molar conc.)

Checklist item: pKd tested on CELF2 (UniProt O95319), entry UAUUUAU , value?
6.55

Checklist item: pKd tested on CELF2 (UniProt O95319), entry AAUAAA , value?
6.94

Checklist item: pKd tested on CELF2 (UniProt O95319), entry CUGUCCU , value?
6.02
